Assay: in vitro
Settings: human
Reported viability at 24 h, 0.234375 µM is given for each of the following compounds.
Endpoint: viability at 24 h, 0.234375 µM (%)

INSERT INTO measurements (compound, experimental_result) VALUES
  ('Cc1cc(Nc2ccc(NC(=O)c3ccc(Nc4ccnc5ccccc45)cc3)cc2)nc(N)n1 [Compound 1, SGI-1027, reference compound]', 113),
  ('Cc1cc(Nc2ccc(NC(=O)c3ccc(Nc4ccnc5[nH]ccc45)cc3)cc2)nc(N)n1 [Compound 46]', 104),
  ('Nc1nccc(Nc2ccc(NC(=O)c3ccc(Nc4ncnc5ccccc45)cc3)cc2)n1 [Compound 47]', 109),
  ('Cc1cc(Nc2ccc(NC(=O)c3ccc(Nc4ncnc5ccccc45)cc3)cc2)nc(N)n1 [Compound 45]', 110),
  ('Nc1cc(Nc2ccc(NC(=O)c3ccc(Nc4ccnc5ccccc45)cc3)cc2)ccn1 [Compound 36]', 106);
